All figures here come from paper PMC8252026.

# study-system: human HHAT (Homo sapiens, UniProt Q5VTY9)
# Construct: Full-length human HHAT (UniProt Q5VTY9); made in house
# Sequence (Q5VTY9 whole entry): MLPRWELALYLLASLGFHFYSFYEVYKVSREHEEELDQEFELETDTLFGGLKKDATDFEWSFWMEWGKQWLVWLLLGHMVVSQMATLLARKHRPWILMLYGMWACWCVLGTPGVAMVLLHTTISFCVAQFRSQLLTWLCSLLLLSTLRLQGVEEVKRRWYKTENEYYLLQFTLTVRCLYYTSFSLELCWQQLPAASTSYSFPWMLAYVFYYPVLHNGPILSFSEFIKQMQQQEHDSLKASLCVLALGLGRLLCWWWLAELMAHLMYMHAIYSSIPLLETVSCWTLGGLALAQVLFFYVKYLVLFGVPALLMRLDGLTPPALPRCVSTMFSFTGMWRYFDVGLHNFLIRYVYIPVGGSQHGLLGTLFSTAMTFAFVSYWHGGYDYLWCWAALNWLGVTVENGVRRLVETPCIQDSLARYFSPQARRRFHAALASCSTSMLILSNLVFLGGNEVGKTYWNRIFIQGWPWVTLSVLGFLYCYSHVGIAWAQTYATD
# test-method-notes: Acyl-cLIP assay, dose-response inhibition of purified HHAT
# Type: biochemical
# experimental-setup: purified HHAT, real-time Acyl-cLIP, mean and 95 % CI, n=3
pIC50: −log10 of the molar value.
recorded-endpoint: pIC50

CC(=O)N1CCc2sccc2C1c1cccc(C)n1 (stereo not shown) | 4.89

(a) C#CCCC1(CC(=O)N2CCc3sccc3C2c2cccc(C)n2)N=N1 (stereo not shown)
(b) Cc1cccc(C2c3ccsc3CCN2C(=O)CNCC(C)C)n1 (stereo not shown) [Compound 6]
(c) C#CCCC1(CCC(=O)N2CCc3sccc3C2c2cccc(C)n2)N=N1 (stereo not shown)
(d) Cc1cccc([C@H]2c3ccsc3CCN2C(=O)CNCC(C)C)n1 [(+)-6]
Input: List by increasing pIC50. Order the labels as requested and list them.
Output: a, c, b, d
(a: 4.80, c: 5.62, b: 5.89, d: 6.12)
